B1: library; numbered along this chain (parent)
chain: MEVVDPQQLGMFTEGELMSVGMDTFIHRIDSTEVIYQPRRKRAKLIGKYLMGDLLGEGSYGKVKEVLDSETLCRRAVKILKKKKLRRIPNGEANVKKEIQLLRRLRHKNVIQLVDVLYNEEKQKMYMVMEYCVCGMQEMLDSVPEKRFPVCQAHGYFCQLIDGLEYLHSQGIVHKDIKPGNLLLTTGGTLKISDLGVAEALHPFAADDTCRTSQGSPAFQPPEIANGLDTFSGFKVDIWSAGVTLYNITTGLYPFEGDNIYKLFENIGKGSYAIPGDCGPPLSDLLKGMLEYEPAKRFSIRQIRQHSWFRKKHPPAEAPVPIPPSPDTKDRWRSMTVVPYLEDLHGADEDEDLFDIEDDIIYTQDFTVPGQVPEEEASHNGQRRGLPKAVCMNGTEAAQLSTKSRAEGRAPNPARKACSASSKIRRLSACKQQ

- Variants of: B1
- Test Summary: STK11 functional score (HeLa growth suppression), rescaled enrichment; synonymous median = 1, nonsense median = 0 (normalised score)
- Cond: with HeLa; variant type: missense
Give measured STK11 functional score for each item. Keep answers brief.
Respond with the number and no other words.

// lookup STK11 functional score for I360D
0.487

Again, but for V114C
0.202

Again, but for M136S
0.0685

Again, but for I260W
1.21

Again, but for A318T
1.17

Again, but for F148G
-0.0254

Again, but for S19I
1.34

Again, but for V390A
1.51

Again, but for L85I
1.56
